System: HFF
Assay: Visual cytotoxicity scored on HFF cells at a time of HCMV plaque enumeration
Assay type: functional, cell-based
Conditions: Homo sapiens
pIC50: −log10 of the molar value.
As shown below, each of these molecules has a reported pIC50 value.
Parameter: pIC50

Clc1cc2nc(Br)n(Cc3ccccc3Cl)c2cc1Cl; < 5.00
Cc1cccc(Cn2c(Br)nc3cc(Cl)c(Cl)cc32)c1; < 4.00
FC(F)(F)c1cccc(Cn2c(Br)nc3cc(Cl)c(Cl)cc32)c1; < 4.00
Nc1nc2cc(Cl)c(Cl)cc2n1Cc1ccc(Cl)c(Cl)c1; 4.49
Nc1nc2cc(Cl)c(Cl)cc2n1Cc1ccc([N+](=O)[O-])cc1; < 4.00
Fc1ccc(Cn2c(Br)nc3cc(Cl)c(Cl)cc32)cc1; < 4.00
